- Tested on: M. tuberculosis H37Rv growth inhibition with meropenem
- protocol summary: dose response, H37Rv, with and without meropenem (AID 434987);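 note: growth over 7 days at 37 °C before Alamar Blue read on day 9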
- condition info: measured here: IC90 with meropenem
Measured IC90 values are reported for all entries that follow.

Below, each entry is followed by its recorded IC90 result.
Brc1ccc(CNc2ccc3ncccc3c2)cc1
> 100 µM
COc1ccc(-c2cc(C(F)F)nc(-n3nc(C)cc3C)n2)cc1
54.1 µM
c1ccc(-c2oc3ncnc(NCCN4CCOCC4)c3c2-c2ccccc2)cc1
> 100 µM
O=C(Nc1ccc(F)cc1)c1sc2cc(C(F)(F)F)cnc2c1-c1cccs1
> 100 µM

Please provide the recorded IC90 for O=C1C2ON(c3ccc(Br)cc3)C(c3cccnc3)C2C(=O)N1C1CCCCC1 (stereo unspecified) , tested on M. tuberculosis H37Rv growth inhibition with meropenem.
> 100 µM

Please provide the recorded IC90 for `CCn1c(-c2ccc(-c3ccccc3)cc2)c[nH]c1=S` , tested on M. tuberculosis H37Rv growth inhibition with meropenem.
> 100 µM

// provenance: PubChem BioAssay AID434987
